tested on: SF-539 CNS; assay: NCI tumour cell line growth inhibition, 48 h
metric: TGI (µM)
Supply the numeric figure in µM, leaving out any unit text.

Look up TGI for this compound: CCC1C(=O)OCc2c1cc1n(c2=O)C(CC)c2c-1nc1ccccc1c2Cl (stereo not given)
41.1

Further cases:
Look up TGI for this compound: O=C(O)COc1ccc(C(=O)/C(SS/C(C(=O)c2ccc(OCC(=O)O)c(Cl)c2Cl)=C2\C=C(c3ccc(Br)cc3)SS2)=C2/C=C(c3ccc(Br)cc3)SS2)c(Cl)c1Cl
26.2

Look up TGI for this compound: O=NN(CCCl)C(=O)NC1CCC(=O)NC1=O (stereo not given)
309

Look up TGI for this compound: COC1=CC(=O)c2c(O)c3c(c(O)c2C1=O)C[C@](C)(O)C[C@@H]3O
9.89

----------
The following compounds are shown together with reported TGI values.
tested on: SK-MEL-28 melanoma; test: NCI tumour cell line growth inhibition, 48 h
Where a SMILES comes first, the peptide text is derived from it. Bridges are numbered along the chain shown (N, C = ends). The star is where a group is joined. Cbz = O=C(OCc1ccccc1)*

Known results for compounds:
Look up TGI for this compound: Cc1ccc(NC(=O)CC2SC(N)=NC2=O)cc1C (stereo not drawn)
> 100 µM

Look up TGI for this compound: COc1cc(OC)cc(-c2n/c(=C\c3c(O)[nH]c4ccc(Cl)cc34)cc3c2=Nc2ccccc2-3)c1
> 100 µM

Further cases:
Look up TGI for this compound: COC(=O)C1CCCCNC(=O)CCC(NC(=O)OCc2ccccc2)C(=O)N1 (stereo not drawn) (Cbz-Glu-Lys-OMe; lactam 1-2; configuration not given here)
> 100 µM

----------
The following molecules are shown together with reported TGI values.
system: HCT-15 colon; test: NCI tumour cell line growth inhibition, 48 h

Known results for molecules:
Look up TGI for this molecule: O=C(NN1C(=O)CSC1c1ccc(F)cc1)C(O)c1ccccc1 (stereo not given)
> 100 µM

Look up TGI for this molecule: Cc1ccc(N=C2SC(c3ccc(C)cc3)(c3ccc(C)cc3)c3ccccc32)cc1
> 100 µM

Look up TGI for this molecule: OCc1ccc(N2CCCC2)cc1Cl
> 100 µM

Further cases:
Look up TGI for this molecule: O=C1NC2CCCCC2N=C1/C(C(=O)c1ccccc1)=C(\O)c1ccccc1 (stereo not given)
> 100 µM

Look up TGI for this molecule: Cc1cc(NC(=O)c2cnc(N3CCN(CCOCCOCCOCCOCCC(=O)N[C@H](C(=O)N4C[C@H](O)C[C@H]4C(=O)N[C@@H](C)c4ccc(-c5scnc5C)cc4)C(C)(C)C)CC3)cn2)c2ncccc2c1
> 100 µM

----------
tested on: HT29 colon; assay: NCI tumour cell line growth inhibition, 48 h
metric: TGI

Known results for compounds:
Look up TGI for this compound: CC(=O)[CH-]C(=O)Nc1ccccc1.CC(=O)[CH-]C(=O)Nc1ccccc1.CC[O-].CC[O-].[Ti+4]
> 100 µM

Look up TGI for this compound: CC1=C[C@@H](C)C[C@]2(C)CC[C@H](O2)[C@]23CC[C@](C)(C[C@H](O2)[C@@H]2O[C@@](C)(CC2=O)[C@@H](O)[C@H]2CC[C@@]4(CCC[C@@H](O4)[C@H](C)C(=O)O[C@H]4C[C@H]([C@]5(O)OCC[C@H](C)[C@@H]5O)O[C@H]4C=C1)O2)O3
> 10 µM

Look up TGI for this compound: O=C(O)COc1ccc(C(=O)/C(SS/C(C(=O)c2ccc(OCC(=O)O)c(Cl)c2Cl)=C2\C=C(c3ccc(Br)cc3)SS2)=C2/C=C(c3ccc(Br)cc3)SS2)c(Cl)c1Cl
> 100 µM

Further cases:
Look up TGI for this compound: Cc1nc2c(sc(=S)n2-c2ccccc2)c2nc3ccccc3n12
> 100 µM
